Source listed as patent US11858945B2.

For each record, write down the corresponding IC50.
Biological target: SARS-CoV-2 3CL-protease (Severe acute respiratory syndrome coronavirus 2 (2019-nCoV) (SARS-CoV-2))
Test: SARS-CoV-2 3C-like (3CL) protease fluorescence assay (FRET)
Conditions: recombinant SARS-CoV-2 3CL-protease 10 nM, 30 min preincubation at RT, peptide substrate, run in duplicate; IC50 ranges

>>> result("C#C[C@@H]1C[C@@]2(CN1C(=O)[C@H](CC(C)(C)F)NC(=O)c1cc3c(F)ccc(F)c3[nH]1)C(=O)Nc1ccccc12 [Compound 11]")
"< 100 nM"
>>> result("C#C[C@@H]1C[C@@]2(CN1C(=O)[C@H](CC(C)(C)F)NC(=O)c1cccc(OC(F)(F)F)c1)C(=O)Nc1ccccc12 [Compound 20]")
"100 to 1000 nM"
>>> result("C#C[C@@H]1C[C@@]2(CN1C(=O)[C@H](CC(C)(C)F)NC(=O)c1cc3ccc(F)cc3[nH]1)C(=O)Nc1ccccc12 [Compound 9]")
"< 100 nM"
>>> result("C#C[C@@H]1C[C@@]2(CN1C(=O)[C@H](CC(C)(C)F)NC(=O)c1cc3c(F)cc(F)cc3[nH]1)C(=O)Nc1ccccc12 [Compound 10]")
"100 to 1000 nM"
>>> result("C#C[C@@H]1C[C@@]2(CN1C(=O)[C@H](CC(C)(C)F)NC(=O)c1cc3cc(S(C)(=O)=O)ccc3[nH]1)C(=O)Nc1ccccc12 [Compound 1]")
"100 to 1000 nM"
>>> result("C#C[C@@H]1C[C@@]2(CN1C(=O)[C@H](CC(C)(C)F)NC(=O)c1cc3cccc(F)c3[nH]1)C(=O)Nc1ccccc12 [Compound 8]")
"< 100 nM"
>>> result("C#C[C@@H]1C[C@@]2(CN1C(=O)[C@H](CC(C)(C)F)NC(=O)c1cc3ccc(Cl)c(Cl)c3[nH]1)C(=O)Nc1ccccc12 [Compound 7]")
"< 100 nM"

We next turn to a different molecule, shown below.
Form field: reported IC50 of C#C[C@@H]1C[C@@]2(CN1C(=O)[C@H](CC(C)(C)F)NC(=O)c1cc3cc(Cl)ccc3[nH]1)C(=O)Nc1ccccc12 [Compound 3]
100 to 1000 nM

----------
Target: SARS-CoV-2 3CL-protease (Severe acute respiratory syndrome coronavirus 2 (2019-nCoV) (SARS-CoV-2))
Experiment: SARS-CoV-2 3C-like (3CL) protease fluorescence assay (FRET)
Format: biochemical
Details: recombinant SARS-CoV-2 3CL-protease 10 nM, 30 min preincubation at RT, peptide substrate, run in duplicate; IC50 ranges
pIC50: −log10 of the molar value.
measuredProperty: pIC50

Hi! Can you tell me pIC50 for each of these compounds?
1. C#C[C@@H]1C[C@@]2(CN1C(=O)[C@H](CC(C)(C)F)NC(=O)c1cc3ccc(Cl)cc3[nH]1)C(=O)Nc1ccccc12 [Compound 4]
2. C#C[C@@H]1C[C@@]2(CN1C(=O)[C@H](CC(C)(C)F)NC(=O)c1cc3c(Cl)cc(Cl)cc3[nH]1)C(=O)Nc1ccccc12 [Compound 6]
3. C#C[C@@H]1C[C@@]2(CN1C(=O)[C@H](CC(C)(C)F)NC(=O)c1cc3cccc(C(F)(F)F)c3[nH]1)C(=O)Nc1ccccc12 [Compound 13]
4. C#C[C@@H]1C[C@@]2(CN1C(=O)[C@H](CC(C)(C)F)NC(=O)c1cc(F)c3ncccc3c1)C(=O)Nc1ccccc12 [Compound 19]
5. C#C[C@@H]1C[C@@]2(CN1C(=O)[C@H](CC(C)(C)F)NC(=O)c1cc3cccc(Cl)c3[nH]1)C(=O)Nc1ccccc12 [Compound 5]
6. C#C[C@@H]1C[C@@]2(CN1C(=O)[C@H](CC(C)(C)F)NC(=O)c1cc3cc(C(F)(F)F)ccc3[nH]1)C(=O)Nc1ccccc12 [Compound 14]
7. C#C[C@@H]1C[C@@]2(CN1C(=O)[C@H](CC(C)(C)F)NC(=O)c1cc3cccnc3[nH]1)C(=O)Nc1ccccc12 [Compound 16]

1: > 7.00; 2: 6.00 to 7.00; 3: > 7.00; 4: < 6.00; 5: > 7.00; 6: 6.00 to 7.00; 7: 6.00 to 7.00
